Task for the reader: assign each of the following compounds its reported Change.
# experimental-target: DNA topoisomerase 1 (Homo sapiens) (UniProt P11387)
# Sequence (P11387 whole entry): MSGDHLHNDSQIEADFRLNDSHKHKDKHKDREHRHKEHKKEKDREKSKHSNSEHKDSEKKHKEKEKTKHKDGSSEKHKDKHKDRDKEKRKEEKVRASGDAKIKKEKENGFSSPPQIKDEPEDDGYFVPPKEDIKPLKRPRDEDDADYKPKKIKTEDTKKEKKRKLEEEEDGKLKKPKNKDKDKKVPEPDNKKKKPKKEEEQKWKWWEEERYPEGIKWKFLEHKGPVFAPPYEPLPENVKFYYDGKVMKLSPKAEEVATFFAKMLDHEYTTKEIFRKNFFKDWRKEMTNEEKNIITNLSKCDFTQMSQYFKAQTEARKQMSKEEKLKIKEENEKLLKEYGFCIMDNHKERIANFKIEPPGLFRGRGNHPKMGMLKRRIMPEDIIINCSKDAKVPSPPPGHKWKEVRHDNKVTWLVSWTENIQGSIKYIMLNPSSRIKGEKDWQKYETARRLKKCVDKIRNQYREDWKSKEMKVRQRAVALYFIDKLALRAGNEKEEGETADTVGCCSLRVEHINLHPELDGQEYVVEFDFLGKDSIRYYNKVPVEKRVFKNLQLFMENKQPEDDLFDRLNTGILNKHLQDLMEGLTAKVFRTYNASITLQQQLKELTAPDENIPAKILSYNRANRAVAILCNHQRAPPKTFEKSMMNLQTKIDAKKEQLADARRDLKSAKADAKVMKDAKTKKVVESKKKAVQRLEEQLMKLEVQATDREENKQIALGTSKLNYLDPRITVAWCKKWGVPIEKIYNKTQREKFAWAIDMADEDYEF
# assay-method-text: Topoisomerase I DNA relaxation activity was evaluated by Fluorescence assay using Ethidium Bromide before heat denaturation of pBR322 DNA at concentration 25 uM
# condition-info: Escherichia coli; at 25 µM
A complete answer gives the number and then names the unit.

Request: Field request: Change | item: CN(C)CCCNC(=O)c1cc(NC(=O)c2cc(NC(=O)c3cc(NC(=O)Cn4cc(C5=C(c6c[nH]c7ccccc67)C(=O)NC5=O)c5ccccc54)cn3C)cn2C)cn1C
Result: 11%

Request: Could you tell me which Change is on file for COC(=O)c1cc(NC(=O)c2cc(NC(=O)c3cc(NC(=O)Cn4cc(C5=C(c6c[nH]c7ccccc67)C(=O)NC5=O)c5ccccc54)cn3C)cn2C)cn1C ?
Result: 1%

Request: Which value of Change has been reported for CN(C)CCCNC(=O)c1cc(NC(=O)c2cc(NC(=O)Cn3cc(C4=C(c5c[nH]c6ccccc56)C(=O)NC4=O)c4ccccc43)cn2C)cn1C in the records?
Result: 7%

Request: State the recorded Change for this entry: COC(=O)c1cc(NC(=O)c2cc(NC(=O)Cn3cc(C4=C(c5c[nH]c6ccccc56)C(=O)NC4=O)c4ccccc43)cn2C)cn1C
Result: 3%
